Where these numbers come from: patent US20080292736A1

condition details: rat, in vivo
Recorded % Enhancement in bioavailability, BE from Carum carvi for the following compounds
Please respond with the number in % and leave the unit unwritten.

Worked examples follow.
1) Cc1onc(-c2ccccc2Cl)c1C(=O)N[C@@H]1C(=O)N2[C@@H]1SC(C)(C)[C@@H]2C(=O)O = 110
2) CC[C@H]1OC(=O)[C@H](C)[C@@H](O[C@H]2C[C@@](C)(OC)[C@@H](O)[C@H](C)O2)[C@H](C)[C@@H](O[C@@H]2O[C@H](C)C[C@H](N(C)C)[C@H]2O)[C@](C)(O)C[C@@H](C)/C(=N\OCOCCOC)[C@H](C)[C@@H](O)[C@]1(C)O = 65
3) NCC[C@H](O)C(=O)N[C@@H]1C[C@H](N)[C@@H](O[C@H]2O[C@H](CN)[C@@H](O)[C@H](O)[C@H]2O)[C@H](O)[C@H]1O[C@H]1O[C@H](CO)[C@@H](O)[C@H](N)[C@H]1O = 85
4) C=CC1=C(C(=O)O)N2C(=O)[C@@H](NC(=O)/C(=N\OCC(=O)O)c3csc(N)n3)[C@H]2SC1 = 80

Read the next record carefully.
Recorded % Enhancement in bioavailability, BE from Carum carvi for CC1=C(C(=O)O)N2C(=O)[C@@H](NC(=O)[C@H](N)c3ccc(O)cc3)[C@H]2SC1 , please?
67
